EXPERIMENT NOTES: chemical genetic growth profiling, strain panel (AID 1159580);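 further: tested at 20 µM; growth read once vehicle control cultures reached saturation at 30 °C; 1 = growth at the plate median or of vehicle wells; lower values mean less growth of the strain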
TEST CONDITIONS: S. cerevisiae deletion strains, growth OD, locus YNL298W, strain CLA4, active compounds read low
Hit rate of the full screen: of about 5,500 compounds, about 2,000 (36%) were called active. Roughly 18% stayed inconclusive and do not appear here. The list shows a part of the results.
EXPERIMENTAL ENDPOINT: normalized growth
The answer should be written as a number, with no unit following it.

[Q] normalized growth lookup needed for CN=C(N)NCCCC(N)C(=O)O (configuration not stated) , thanks.
[A] 1.04

[Q] Endpoint output: normalized growth of COC1C=CC23c4cc5c(cc4CN(CC2O)[C@@H]3C1)OCO5 (some centres not stated) . Value?
[A] 0.994

[Q] For the compound COc1ccc(-c2cc(=O)c3c(OC)cc(OC)cc3o2)cc1 , what normalized growth is on record?
[A] 1

[Q] # lookup: normalized growth of CC(=O)OC1CC(O)C(C)(C)C2CC(=O)C3(C)C(CCC4(C)C(c5ccoc5)OC(=O)C5OC543)C12C (configuration not stated)
[A] 0.968

[Q] Consider the compound shown here: NCCCCNCCCN What is its recorded normalized growth?
[A] 0.981

[Q] Which value of normalized growth has been reported for COc1cc(OC)c2c(=O)cc(-c3ccccc3)oc2c1 in the records?
[A] 0.941

[Q] What normalized growth value was documented for this compound, COc1cc(C)c2c(=O)cc(-c3ccccc3)oc2c1 ?
[A] 0.953

[Q] Can you share its normalized growth? I mean this compound: Cc1cc(/C=C/c2ccc3cc(N(C)C)ccc3[n+]2C)c(C)n1-c1ccccc1
[A] 1.01

[Q] Suppose we examine the compound O=C(O)C1CCCNC1 (configuration not stated) ; what normalized growth value has been reported?
[A] 1.02

[Q] Requested field: normalized growth. Item: Cc1oncc1C(=O)Nc1ccc(C(F)(F)F)cc1
[A] 1.01

[Q] Given the entry CCC(=O)OC1[C@@H]2CC3=C4CC(=O)O[C@@H](c5ccoc5)[C@]4(C)CCC3[C@@](C)(C2=O)[C@@H](CC(=O)OC)C1(C)C (some centres not stated) , report its measured normalized growth.
[A] 1.03

[Q] GET /values?readout=normalized growth&item= Clc1ccc(C(c2ccccc2Cl)C(Cl)Cl)cc1 (configuration not stated)
[A] 0.978
